organism: Rattus norvegicus; experiment: Open TG-GATES - Regimen: Single; format: toxicity, organism-based, Sprague-Dawley; parameters: regimen Single, gender Male, age 6 weeks; conditions: in vivo, po, 0 mg/kg, 24 h, tissue Plasma, route gavage, dose level Control
Please mark Met if the recorded TG is equal to or greater than 80 mg/dL, and Not met if it falls below.

{"Compound": "CC(C)NNC(=O)c1ccncc1", "Class Name": "Met"}

Hi, just wondering whether `CCOc1ccc(NC(C)=O)cc1` shows TG of 80 mg/dL or higher.
Met

Hi, just wondering whether NC1=NC(=O)C(c2ccccc2)O1 (stereo not drawn) shows TG of 80 mg/dL or higher.
Met

Hi, just wondering whether CN(C)CCC(c1ccc(Cl)cc1)c1ccccn1 (stereo not drawn) shows TG of 80 mg/dL or higher.
Met

Hi, just wondering whether `COC(=O)C1=C(C)NC(C)=C(C(=O)OC)C1c1ccccc1[N+](=O)[O-]` shows TG of 80 mg/dL or higher.
Not met

Hi, just wondering whether `CCCc1cc(=O)[nH]c(=S)[nH]1` shows TG of 80 mg/dL or higher.
Met

Hi, just wondering whether `CN/C(=N/CCSCc1nc[nH]c1C)NC#N` shows TG of 80 mg/dL or higher.
Met

Hi, just wondering whether CN1C(=O)CCS(=O)(=O)C1c1ccc(Cl)cc1 (stereo not drawn) shows TG of 80 mg/dL or higher.
Met

Hi, just wondering whether `Brc1ccccc1` shows TG of 80 mg/dL or higher.
Not met

Hi, just wondering whether `Nc1c2c(nc3ccccc13)CCCC2` shows TG of 80 mg/dL or higher.
Met

Hi, just wondering whether `O=C(OC[C@H]1O[C@@H](OC(=O)c2cc(O)c(O)c(OC(=O)c3cc(O)c(O)c(O)c3)c2)[C@H](OC(=O)c2cc(O)c(O)c(OC(=O)c3cc(O)c(O)c(O)c3)c2)[C@@H](OC(=O)c2cc(O)c(O)c(OC(=O)c3cc(O)c(O)c(O)c3)c2)[C@@H]1OC(=O)c1cc(O)c(O)c(OC(=O)c2cc(O)c(O)c(O)c2)c1)c1cc(O)c(O)c(OC(=O)c2cc(O)c(O)c(O)c2)c1` shows TG of 80 mg/dL or higher.
Not met

The measurements presented in this section are drawn from ChEMBL document CHEMBL3885861.
